# Organism: Rattus norvegicus
# test: Antiinflammatory activity by immune response to collagen II antigen in rats antibody titer was determined by passive hemagglutinination
# Assay type: functional
The entries below come with measured Antibody titer values attached.
experimentalEndpoint: Antibody titer

>>> df
                                 itemsmiles  experimentalendpoint  measurednumber
0  CN1C(C(=O)Nc2ccccn2)=C(O)c2ccccc2S1(=O)=O        Antibody titer            12.2
1  CC(C)=CCc1c(O)n(Cc2ccc(F)cc2)c2nc3c(c(=O)n(C)c(=O)n3C)n2c1=O        Antibody titer             8.4
2  CC(C)=CCc1c(O)n(Cc2ccccc2)c2nc3c(c(=O)n(C)c(=O)n3C)n2c1=O        Antibody titer            10.9
3  CCCc1c(O)n(Cc2ccccc2)c2nc3c(c(=O)n(C)c(=O)n3C)n2c1=O        Antibody titer             9.2
4  CCCc1c(O)n(Cc2ccc(F)cc2)c2nc3c(c(=O)n(C)c(=O)n3C)n2c1=O        Antibody titer             6.6

* * *

# test: Plasma level data at a dose of 20 mg/kg, iv after 2 hr
# Format: ADME, organism-based
# Set-up: dose 20 mg/kg, route intravenous
# conditionsUsed: read-out: Plasma level
experimentalEndpoint: concentration at 2 h

                                 itemsmiles      result
0  CC(C)=CCc1c(O)n(Cc2ccccc2)c2nc3c(c(=O)n(C)c(=O)n3C)n2c1=O  53.8 µg/mL

* * *

# Species on record: Rattus norvegicus
# test: Antiinflammatory activity on the development of collagen II arthritis in rats, measured based on animals positive for arthritis by the presence of bone lesions
# Assay type: functional
Quick rule: Positive of at least 40% means Fulfilled, below that means Not fulfilled.

>>> print(df.to_string())
                                   compound  classassignment
0  CN1C(C(=O)Nc2ccccn2)=C(O)c2ccccc2S1(=O)=O [PIROXICAM]        Fulfilled
1  CCCc1c(O)n(Cc2ccc(F)cc2)c2nc3c(c(=O)n(C)c(=O)n3C)n2c1=O    Not fulfilled
2  CCCc1c(O)n(Cc2ccccc2)c2nc3c(c(=O)n(C)c(=O)n3C)n2c1=O    Not fulfilled
3  CC(C)=CCc1c(O)n(Cc2ccc(F)cc2)c2nc3c(c(=O)n(C)c(=O)n3C)n2c1=O    Not fulfilled

* * *

# Test system: Rattus norvegicus
# test: Antiinflammatory activity against collagen II arthritis in rats, activity% inhibition in injected paw edema
# Format: functional
# Design: concentration or dose not given beside the values
Quick rule: Inhibition of at least 40% means rule met, below that means rule not met.

>>> print(df.to_string())
                                   compound  classassignment
0  CC(C)=CCc1c(O)n(Cc2ccc(F)cc2)c2nc3c(c(=O)n(C)c(=O)n3C)n2c1=O         rule met
1  CCCc1c(O)n(Cc2ccccc2)c2nc3c(c(=O)n(C)c(=O)n3C)n2c1=O     rule not met
2  CCCc1c(O)n(Cc2ccc(F)cc2)c2nc3c(c(=O)n(C)c(=O)n3C)n2c1=O     rule not met
3   CC(C)(S)[C@@H](N)C(=O)O [PENICILLAMINE]     rule not met
4  CN1C(C(=O)Nc2ccccn2)=C(O)c2ccccc2S1(=O)=O [PIROXICAM]     rule not met

* * *

# test: Plasma level data at a dose of 20 mg/kg, iv after 0.25 hr
# Assay type: ADME, organism-based
# Design: dose 20 mg/kg, route intravenous
# conditionsUsed: read-out: Plasma level
experimentalEndpoint: concentration at 0.25 h (µg/mL)

>>> print(df.to_string())
                                 itemsmiles     experimentalendpoint  measurednumber
0  CC(C)=CCc1c(O)n(Cc2ccccc2)c2nc3c(c(=O)n(C)c(=O)n3C)n2c1=O  concentration at 0.25 h            95.1

* * *

# Test system: Rattus norvegicus
# test: Antiinflammatory activity on the development of collagen II arthritis in rats, measured based on animals positive for arthritis by the presence of paw edema
# Format: functional
Criterion: Positive strictly less than 30%. Met: 1. Not met: 0.

>>> df
                                 itemsmiles  classassignment
0  CN1C(C(=O)Nc2ccccn2)=C(O)c2ccccc2S1(=O)=O                0
1  CC(C)=CCc1c(O)n(Cc2ccc(F)cc2)c2nc3c(c(=O)n(C)c(=O)n3C)n2c1=O                1
2  CCCc1c(O)n(Cc2ccc(F)cc2)c2nc3c(c(=O)n(C)c(=O)n3C)n2c1=O                0
3  CC(C)=CCc1c(O)n(Cc2ccccc2)c2nc3c(c(=O)n(C)c(=O)n3C)n2c1=O                0
4  CCCc1c(O)n(Cc2ccccc2)c2nc3c(c(=O)n(C)c(=O)n3C)n2c1=O                1

* * *

# test: Plasma level data at a dose of 20 mg/kg, iv after 6 hr
# Format: ADME, organism-based
# Set-up: dose 20 mg/kg, route intravenous
# conditionsUsed: read-out: Plasma level
experimentalEndpoint: concentration at 6 h

                                 itemsmiles  experimentalendpoint       result
0  CC(C)=CCc1c(O)n(Cc2ccccc2)c2nc3c(c(=O)n(C)c(=O)n3C)n2c1=O  concentration at 6 h  35100 ng/mL

* * *

# test: Plasma level data at a dose of 36 mg/kg, iv after 2 hr
# Type: ADME, organism-based
# Parameters: dose 36 mg/kg, route intravenous
# conditionsUsed: read-out: Plasma level
experimentalEndpoint: concentration at 2 h (µg/mL)

>>> print(df.to_string())
                                 itemsmiles  measurednumber
0  CCCc1c(O)n(Cc2ccc(F)cc2)c2nc3c(c(=O)n(C)c(=O)n3C)n2c1=O             128

* * *

# test: Plasma level data at a dose of 36 mg/kg, iv after 4 hr
# Assay type: ADME, organism-based
# Design: dose 36 mg/kg, route intravenous
# conditionsUsed: read-out: Plasma level
experimentalEndpoint: concentration at 4 h (µg/mL)

>>> df
                                 itemsmiles  unitofmeasurement  measurednumber
0  CCCc1c(O)n(Cc2ccc(F)cc2)c2nc3c(c(=O)n(C)c(=O)n3C)n2c1=O              µg/mL            72.4

* * *

# test: Plasma level data at a dose of 20 mg/kg, po after 0.25 hr
# Type: ADME, organism-based
# Set-up: dose 20 mg/kg, route oral
# conditionsUsed: read-out: Plasma level
experimentalEndpoint: concentration at 0.25 h

                                 itemsmiles     experimentalendpoint      result
0  CC(C)=CCc1c(O)n(Cc2ccccc2)c2nc3c(c(=O)n(C)c(=O)n3C)n2c1=O  concentration at 0.25 h  2400 ng/mL

* * *

# test: Plasma level data at a dose of 20mg/kg, po after 0.5 hr
# Assay type: ADME, organism-based
# conditionsUsed: read-out: Plasma level
experimentalEndpoint: concentration at 0.5 h (ng/mL)

                                 itemsmiles  unitofmeasurement  measurednumber
0  CC(C)=CCc1c(O)n(Cc2ccccc2)c2nc3c(c(=O)n(C)c(=O)n3C)n2c1=O              ng/mL           10800

* * *

# test: Plasma level data at a dose of 36 mg/kg, po after 0.25 hr
# Type: ADME, organism-based
# Set-up: dose 36 mg/kg, route oral
# conditionsUsed: read-out: Plasma level
experimentalEndpoint: concentration at 0.25 h (ng/mL)

>>> df
                                 itemsmiles     experimentalendpoint  unitofmeasurement  measurednumber
0  CCCc1c(O)n(Cc2ccc(F)cc2)c2nc3c(c(=O)n(C)c(=O)n3C)n2c1=O  concentration at 0.25 h              ng/mL           20000

* * *

# test: Plasma level data at a dose of 20 mg/kg, iv after 12 hr
# Assay type: ADME, organism-based
# Design: dose 20 mg/kg, route intravenous
# conditionsUsed: read-out: Plasma level
experimentalEndpoint: concentration at 12 h (ng/mL)

                                 itemsmiles  measurednumber
0  CC(C)=CCc1c(O)n(Cc2ccccc2)c2nc3c(c(=O)n(C)c(=O)n3C)n2c1=O           10600
